B1: INTS3 (parent)
chain: KKREFRFHPIKETVVEEPVDITPY

- Variants of: B1
- ASSAY PROTOCOL: protein stability index of a GFP-peptide fusion (GPS, HEK-293T) (PSI 1-6); higher = more stable;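 also: lentivirally expressed fusions sorted by FACS into six bins by GFP to DsRed ratio, PSI derived from sequencing read proportions per bin multiplied by bin number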
- MEASUREMENT CONDITIONS: c terminus: a fixed tail appended
MEASUREMENT NAME: protein stability index
Hey, just send me the number, nothing else.

Need protein stability index, item I21H
1.59

What value of measured protein stability index is listed for V14G ?
1.63

Look up protein stability index: I10Q
1.83

For E16N , what is its reported protein stability index?
2.39

Quick one: protein stability index for T13N ?
1.63

What measured protein stability index goes with K1S ?
1.8
